- TARGET: Programmed Death 1 (PD-1) (UniProt Q15116 25-288, limits assumed)
- Sequence (Q15116 25-288 limits assumed): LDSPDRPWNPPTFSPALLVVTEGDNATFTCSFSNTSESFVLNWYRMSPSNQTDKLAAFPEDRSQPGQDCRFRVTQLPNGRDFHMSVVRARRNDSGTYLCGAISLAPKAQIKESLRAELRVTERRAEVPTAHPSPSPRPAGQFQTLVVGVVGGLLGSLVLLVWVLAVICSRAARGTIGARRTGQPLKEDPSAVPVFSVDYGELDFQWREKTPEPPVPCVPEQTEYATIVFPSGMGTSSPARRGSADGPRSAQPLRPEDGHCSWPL
- ASSAY_DETAILS: rank of the clone by competition binding against labelled murine mAb BAP049, first experiment (legends paragraph 52)
MEASURED_ATTRIBUTE: Competition Binding, 1st exp. (rank)
Just the number, please.

Bench note: what Competition Binding, 1st exp. (rank) did BAP049-hum05 (antibody, human IgG4 S228P, kappa, V domains shown, also called humanized BAP049 clone hum05) VH: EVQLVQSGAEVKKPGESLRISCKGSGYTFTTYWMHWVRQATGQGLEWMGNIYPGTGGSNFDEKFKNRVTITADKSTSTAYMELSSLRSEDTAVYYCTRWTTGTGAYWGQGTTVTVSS VL: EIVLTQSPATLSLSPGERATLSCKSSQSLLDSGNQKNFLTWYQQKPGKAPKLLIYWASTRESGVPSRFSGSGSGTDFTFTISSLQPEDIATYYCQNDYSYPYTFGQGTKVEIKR show?
5

Bench note: what Competition Binding, 1st exp. (rank) did BAP049-hum01 (antibody, human IgG4 S228P, kappa, V domains shown, Humanized anti-PD-1 mAb; also called humanized BAP049 clone hum01) VH: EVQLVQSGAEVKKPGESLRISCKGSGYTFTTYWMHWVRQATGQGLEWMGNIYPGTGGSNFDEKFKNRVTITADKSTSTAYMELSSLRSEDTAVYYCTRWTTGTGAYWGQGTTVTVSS VL: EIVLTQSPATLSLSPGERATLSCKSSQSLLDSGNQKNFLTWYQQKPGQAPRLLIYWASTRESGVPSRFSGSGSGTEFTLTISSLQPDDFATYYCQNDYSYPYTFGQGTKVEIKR show?
7

Bench note: what Competition Binding, 1st exp. (rank) did BAP049-hum16 (antibody, human IgG4 S228P, kappa, V domains shown, also called clone 16) VH: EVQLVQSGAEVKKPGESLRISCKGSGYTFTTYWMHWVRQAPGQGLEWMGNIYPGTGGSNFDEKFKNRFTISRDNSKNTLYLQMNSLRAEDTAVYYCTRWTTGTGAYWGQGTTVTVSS VL: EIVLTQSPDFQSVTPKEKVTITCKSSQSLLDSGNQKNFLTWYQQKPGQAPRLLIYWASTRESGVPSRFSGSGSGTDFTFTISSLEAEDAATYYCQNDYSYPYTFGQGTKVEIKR show?
16

Bench note: what Competition Binding, 1st exp. (rank) did BAP049-hum04 (antibody, human IgG4 S228P, kappa, V domains shown, also called clone 4) VH: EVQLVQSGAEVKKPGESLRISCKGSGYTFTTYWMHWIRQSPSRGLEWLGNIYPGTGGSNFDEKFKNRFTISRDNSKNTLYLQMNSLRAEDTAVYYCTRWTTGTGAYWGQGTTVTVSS VL: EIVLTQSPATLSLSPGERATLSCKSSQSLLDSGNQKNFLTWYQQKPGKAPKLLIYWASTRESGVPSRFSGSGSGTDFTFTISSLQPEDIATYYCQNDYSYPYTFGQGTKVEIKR show?
15
